Assign pIC50 to each entry below.
- tested_on: T1, αvβ3 integrin (human, UniProt P06756 31-1048; P05106 27-788)
- T1 construct: whole, on cells; Same entry used for αvβ3-K562, U-87 MG and A375M cells; also called αvβ3-K562; αvβ3 transfected K562 cells
- protocol_details: flow cytometry, competition with biotinylated LXW7 on αvβ3-K562 cells; +++ = IC50 <1 µM
pIC50: −log10 of the molar value. Bridge positions count the residues as written; N and C are the ends. Square brackets hold non-standard residues; d marks the D form. Ends that are not written are not given here. * marks the point of attachment. dNMeV = CN[C@@H](C(=O)O)C(C)C; Isobutyryl = CC(C)C(=O)*

binder | observed_result
Isobutyryl-[dC]GRGD[dD][dV][dC]-NH2 (disulfide 1-8; SMILES CC(C)C(=O)N[C@@H]1CSSC[C@H](C(N)=O)NC(=O)[C@@H](C(C)C)NC(=O)[C@@H](CC(=O)O)NC(=O)[C@H](CC(=O)O)NC(=O)CNC(=O)[C@H](CCCNC(=N)N)NC(=O)CNC1=O) [LXW76] | > 6.00

Could you now look at the following binder, please?
Req: Could you tell me which pIC50 is on file for [dC]GRGD[dD][dNMeV][dC]-NH2 (disulfide 1-8; N-terminus assumed; SMILES CC(C)[C@@H]1C(=O)N[C@@H](C(N)=O)CSSC[C@@H](N)C(=O)NCC(=O)N[C@@H](CCCNC(=N)N)C(=O)NCC(=O)N[C@@H](CC(=O)O)C(=O)N[C@H](CC(=O)O)C(=O)N1C) [LXW22] ?
Resp: > 6.00
